Each entry below lists one item and its recorded Kd value.
B1: NELF-E aptamer (parent)
chain: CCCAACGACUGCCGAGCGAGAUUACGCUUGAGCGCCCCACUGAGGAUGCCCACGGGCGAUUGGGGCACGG

Variants of: B1
assay.method.text: HiTS-RAP
cond: with NELF-E (Drosophila)

variant.spec | result.unit | Kd
G14A A24G | nM | 5.71
A8G U22C | nM | 5.08
A8G G20A | nM | 5.52
U29G U61A | nM | 28.1
A4G G32A | nM | 5.33
U22G G62U | nM | 10.4
U10G G45A | nM | 68.6
C6U G14U | nM | 7.02
A8G G63A | nM | 16.1
C9A U22G | nM | 3.88
G48U C49G | nM | 5.14
C13G C37U | nM | 10.3
G11U G14A | nM | 6.87
G16U A21U | nM | 6.82
C27G | nM | 5.01
C13U A67U | nM | 3.81
A24G A43G | nM | 27.9
A4G C50G | nM | 10.4
G11U G42A | nM | 55.9
A8U G62U | nM | 10
A4G C6G | nM | 5.28
G14U G55U | nM | 9.69
A24G G26U | nM | 6.2
G34U | nM | 5.56
G11A A31G | nM | 10.9
C6A U22G | nM | 7.16
G70U | nM | 5.07
C9G G64U | nM | 8.07
C6G U29A | nM | 5.51
G14U G55A | nM | 7.48
U29G U60C | nM | 11.4
